Hey, just so you know, these numbers are from PubChem BioAssay (NCI).

tested on: OVCAR-5 ovarian; assay: NCI-60 one-dose screen, 48 h (100 = growth as untreated, 0 = no growth, -100 = all killed); settings: 10 µM unless noted
Compounds without any hit were thinned out: in the full panel of roughly 83,000, 20% have a hit. The source made the active and inactive calls. The calls were made as follows: active = growth percent below 10; inactive = the rest.
# growth values compiled below
parameterMeasured: growth

1) CCC1CN1CCCCN1CC1CC (centres undefined)
102% (inactive)
2) C[N+](C)(C)Cc1cc(Cl)ccc1O
101% (inactive)
3) Oc1c(CCl)cc(Cl)cc1CCl
102% (inactive)
4) CCOP(=O)(Nc1ccc2c(c1)/C(=N/NC(N)=S)c1ccccc1-2)OCC
105% (inactive)
5) COc1ccc(S(=O)(=O)N(Cc2ccc3c(c2)C=CC(C)(C)O3)c2ccccc2)cc1OC
103% (inactive)
6) Brc1ccc2c(c1)c(-c1nc(-c3c[nH]c4ncccc34)cs1)cn2CCN1CCCCC1
109% (inactive)
7) O=C(c1ccccc1O)c1[nH]c(Cl)c(Cl)c1-n1c(C(=O)c2ccccc2O)cc(Cl)c1Cl
18.5% (inactive)
8) CC(=O)OC[C@]1(C)C=C2C(=O)[C@](C)(O)C3(CC3)C(C)=C2[C@H]1OC(=O)N(C)CCN(C)C(=O)OC(C)(C)C
3.2% (active)
9) CC(=O)O[C@H](C[C@H](C(C)C)N(C)C(=O)[C@@H](NC(=O)[C@H]1CCCCN1C)C(C)C)c1nc(C(=O)N[C@@H](Cc2ccccc2)C[C@H](C)C(=O)O)c(C)s1
31% (inactive)
